The measurements presented in this section are drawn from PubChem BioAssay (NCI).

Tested on: SF-539 CNS
experiment-summary: NCI tumour cell line growth inhibition, 48 h
Parameter TGI: see the listing below.

{"smiles-string": "O=C(CCc1nc(=S)[nH][nH]1)Nc1cccc(C(F)(F)F)c1", "TGI": "> 100 µM"}

Prompt line: Fill blank: measured TGI of the compound `COc1cccc(NC(=O)CC(=O)NNCC(=O)Nc2nnc(-c3ccc(N(CCC#N)S(=O)(=O)c4ccccc4)cc3)s2)c1` is ____.
Response line: > 100 µM

Prompt line: Given the compound `CN1CCc2c1nc(-c1cccnc1)c1c2N(C)CC1` , what is its reported TGI?
Response line: > 100 µM

---

# key: entry, value: TGI
Tested on: CAKI-1 renal
experiment-summary: NCI tumour cell line growth inhibition, 48 h

{"compound": "O=c1c(O)cccn1CCCN(CCCn1cccc(O)c1=O)CCn1cccc(O)c1=O", "TGI": "> 100 µM"}
{"compound": "Oc1nc(N/N=C/c2ccccc2)[nH]c1/C=C1\\C=Nc2ccccc21", "TGI": "> 100 µM"}
{"compound": "Cc1ccc(SC[C@@]2(C(F)F)NC(=O)NC2=O)cc1", "TGI": "> 100 µM"}
{"compound": "N#Cc1c(Nc2nc3ccccc3s2)c2ccccc2n2c1nc1ccccc12", "TGI": "> 100 µM"}

Prompt line: May I ask what TGI has been recorded for CCN(CC)C(=O)COc1cc2c(O)c3c(O)c(C)c4c(c13)C(=O)C(C)(OC=CC(OC)C(C)C(OC(C)=O)C(C)C(O)C(C)C(O)C(C)C=CC=C(C)C(=O)N2)O4 (stereo unspecified) ?
Response line: > 100 µM

Prompt line: Param item = CCOC1OC(=O)[C@H]2[C@@H]1[C@@H]1CC[C@H]2O1 (stereo partly specified) ; retrieve measured TGI.
Response line: > 100 µM
